# tested_system: Human recombinant adenosine A2A receptors (Homo sapiens)
# Sequence (P29274 whole entry): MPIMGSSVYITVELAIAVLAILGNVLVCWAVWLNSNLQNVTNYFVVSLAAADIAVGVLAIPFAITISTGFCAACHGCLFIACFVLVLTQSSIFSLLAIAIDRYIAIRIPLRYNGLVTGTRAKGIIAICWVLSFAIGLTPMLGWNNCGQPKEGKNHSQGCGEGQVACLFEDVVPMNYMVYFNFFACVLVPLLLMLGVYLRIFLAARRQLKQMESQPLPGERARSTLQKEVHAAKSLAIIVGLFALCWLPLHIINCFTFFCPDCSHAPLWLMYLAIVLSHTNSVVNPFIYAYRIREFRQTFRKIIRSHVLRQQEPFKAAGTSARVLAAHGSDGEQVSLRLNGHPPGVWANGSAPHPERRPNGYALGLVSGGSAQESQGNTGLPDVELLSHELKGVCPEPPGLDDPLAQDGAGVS
# assay: Human adenosine A2A receptor binding assay ([3H]CGS-21680)
# condition_details: membranes of HEK-293 cells, 50 nM [3H]CGS-21680, 90 minutes at 25° C.; read-out: hA2A Ki
pKi: −log10 of the molar value.

>  <molecule>
N#Cc1ccnc(-c2nc(N)nc3c2cnn3Cc2ccc(N)cc2)c1 [Compound 216]

>  <tested_system>
Human recombinant adenosine A2A receptors (Homo sapiens)

>  <pKi>
6.00 to 6.70

$$$$
>  <molecule>
Cc1cc(Cn2ncc3c(-c4cccc(C#N)n4)nc(N)nc32)ccc1N [Compound 227]

>  <tested_system>
Human recombinant adenosine A2A receptors (Homo sapiens)

>  <pKi>
> 7.70

$$$$
>  <molecule>
N#Cc1cccc(-c2nc(N)nc3c2cnn3Cc2c(F)cc(N)cc2F)c1 [Compound 207]

>  <tested_system>
Human recombinant adenosine A2A receptors (Homo sapiens)

>  <pKi>
> 7.70

$$$$
>  <molecule>
N#Cc1cccc(-c2nc(N)nc3c2cnn3Cc2ccc(N)cc2F)c1F [Compound 203]

>  <tested_system>
Human recombinant adenosine A2A receptors (Homo sapiens)

>  <pKi>
> 7.70

$$$$
>  <molecule>
Cc1cc(Cn2ncc3c(-c4ccnc(C#N)c4)nc(N)nc32)ccc1N [Compound 230]

>  <tested_system>
Human recombinant adenosine A2A receptors (Homo sapiens)

>  <pKi>
5.30 to 6.00

$$$$
>  <molecule>
N#Cc1cc(-c2nc(N)nc3c2cnn3Cc2c(F)cc(N)cc2F)ccn1 [Compound 226]

>  <tested_system>
Human recombinant adenosine A2A receptors (Homo sapiens)

>  <pKi>
5.30 to 6.00

$$$$
>  <molecule>
N#Cc1cccc(-c2nc(N)nc3c2cnn3Cc2ccc(N)cc2)n1 [Compound 215]

>  <tested_system>
Human recombinant adenosine A2A receptors (Homo sapiens)

>  <pKi>
6.70 to 7.70

$$$$
>  <molecule>
Cc1cc(Cn2ncc3c(-c4cccc(C#N)c4F)nc(N)nc32)ccc1N [Compound 206]

>  <tested_system>
Human recombinant adenosine A2A receptors (Homo sapiens)

>  <pKi>
> 7.70

$$$$
>  <molecule>
N#Cc1cc(-c2nc(N)nc3c2cnn3Cc2c(F)cccc2F)ccn1 [Compound 234]

>  <tested_system>
Human recombinant adenosine A2A receptors (Homo sapiens)

>  <pKi>
6.00 to 6.70

$$$$
>  <molecule>
N#Cc1cncc(-c2nc(N)nc3c2cnn3Cc2c(F)cc(N)cc2F)c1 [Compound 225]

>  <tested_system>
Human recombinant adenosine A2A receptors (Homo sapiens)

>  <pKi>
5.30 to 6.00

$$$$
>  <molecule>
N#Cc1cncc(-c2nc(N)nc3c2cnn3Cc2ccc(N)cc2)c1 [Compound 217]

>  <tested_system>
Human recombinant adenosine A2A receptors (Homo sapiens)

>  <pKi>
5.30 to 6.00

$$$$
>  <molecule>
N#Cc1cccc(-c2nc(N)nc3c2cnn3Cc2c(F)cccc2F)c1F [Compound 213]

>  <tested_system>
Human recombinant adenosine A2A receptors (Homo sapiens)

>  <pKi>
> 7.70

$$$$
>  <molecule>
N#Cc1ccnc(-c2nc(N)nc3c2cnn3Cc2c(F)cc(N)cc2F)c1 [Compound 224]

>  <tested_system>
Human recombinant adenosine A2A receptors (Homo sapiens)

>  <pKi>
6.70 to 7.70

$$$$
>  <molecule>
N#Cc1cccc(-c2nc(N)nc3c2cnn3Cc2c(F)cc(N)cc2F)n1 [Compound 223]

>  <tested_system>
Human recombinant adenosine A2A receptors (Homo sapiens)

>  <pKi>
> 7.70

$$$$
>  <molecule>
N#Cc1ccnc(-c2nc(N)nc3c2cnn3Cc2ccc(N)cc2F)c1 [Compound 220]

>  <tested_system>
Human recombinant adenosine A2A receptors (Homo sapiens)

>  <pKi>
6.70 to 7.70

$$$$
>  <molecule>
N#Cc1ccnc(-c2nc(N)nc3c2cnn3Cc2c(F)cccc2F)c1 [Compound 232]

>  <tested_system>
Human recombinant adenosine A2A receptors (Homo sapiens)

>  <pKi>
6.70 to 7.70

$$$$
>  <molecule>
N#Cc1cncc(-c2nc(N)nc3c2cnn3Cc2c(F)cccc2F)c1 [Compound 233]

>  <tested_system>
Human recombinant adenosine A2A receptors (Homo sapiens)

>  <pKi>
6.00 to 6.70

$$$$
>  <molecule>
N#Cc1cc(-c2nc(N)nc3c2cnn3Cc2ccc(N)cc2)ccn1 [Compound 218]

>  <tested_system>
Human recombinant adenosine A2A receptors (Homo sapiens)

>  <pKi>
5.30 to 6.00

$$$$
>  <molecule>
N#Cc1cccc(-c2nc(N)nc3c2cnn3Cc2ccc(N)c(C(F)(F)F)c2)c1 [Compound 210]

>  <tested_system>
Human recombinant adenosine A2A receptors (Homo sapiens)

>  <pKi>
> 7.70

$$$$
>  <molecule>
N#Cc1cc(-c2nc(N)nc3c2cnn3Cc2ccc(N)cc2F)ccn1 [Compound 222]

>  <tested_system>
Human recombinant adenosine A2A receptors (Homo sapiens)

>  <pKi>
5.30 to 6.00

$$$$
>  <molecule>
N#Cc1cccc(-c2nc(N)nc3c2cnn3Cc2c(F)cccc2F)n1 [Compound 231]

>  <tested_system>
Human recombinant adenosine A2A receptors (Homo sapiens)

>  <pKi>
> 7.70

$$$$
>  <molecule>
N#Cc1cccc(-c2nc(N)nc3c2cnn3Cc2ccc(N)c(C(F)(F)F)c2)c1F [Compound 211]

>  <tested_system>
Human recombinant adenosine A2A receptors (Homo sapiens)

>  <pKi>
> 7.70

$$$$
>  <molecule>
Cc1cc(Cn2ncc3c(-c4cc(C#N)ccn4)nc(N)nc32)ccc1N [Compound 228]

>  <tested_system>
Human recombinant adenosine A2A receptors (Homo sapiens)

>  <pKi>
6.70 to 7.70

$$$$
>  <molecule>
N#Cc1ccnc(-c2nc(N)nc3c2cnn3Cc2ccc(N)c(C(F)(F)F)c2)c1 [Compound 235]

>  <tested_system>
Human recombinant adenosine A2A receptors (Homo sapiens)

>  <pKi>
> 7.70

$$$$
>  <molecule>
N#Cc1cccc(-c2nc(N)nc3c2cnn3Cc2ccc(N)cc2F)n1 [Compound 219]

>  <tested_system>
Human recombinant adenosine A2A receptors (Homo sapiens)

>  <pKi>
> 7.70

$$$$
>  <molecule>
N#Cc1cncc(-c2nc(N)nc3c2cnn3Cc2ccc(N)cc2F)c1 [Compound 221]

>  <tested_system>
Human recombinant adenosine A2A receptors (Homo sapiens)

>  <pKi>
5.30 to 6.00

$$$$
>  <molecule>
Cc1cc(Cn2ncc3c(-c4cncc(C#N)c4)nc(N)nc32)ccc1N [Compound 229]

>  <tested_system>
Human recombinant adenosine A2A receptors (Homo sapiens)

>  <pKi>
5.30 to 6.00

$$$$
>  <molecule>
N#Cc1cccc(-c2nc(N)nc3c2cnn3Cc2ccc(N)cc2F)c1 [Compound 209]

>  <tested_system>
Human recombinant adenosine A2A receptors (Homo sapiens)

>  <pKi>
> 7.70

$$$$
>  <molecule>
Cc1cc(Cn2ncc3c(-c4cccc(C#N)c4)nc(N)nc32)ccc1N [Compound 204]

>  <tested_system>
Human recombinant adenosine A2A receptors (Homo sapiens)

>  <pKi>
> 7.70

$$$$
